// values below are reported growth
# Test system: K-562 leukemia
# protocol description: NCI-60 one-dose screen, 48 h (100 = growth as untreated, 0 = no growth, -100 = all killed)
# stated conditions: 10 µM unless noted
# Protocol: Cells are grown in 96 well plates and exposed to the test compound for 48 hours. Compounds are tested at a single concentration, which is 10^-5 M for most compounds. The reported endpoint is percent growth (GI% or GIPRCNT), where numbers from 0 - 100% represent growth inhibition, and numbers from -100% - 0 represent cell death. For example, a value of 40 represents 60% growth inhibition. A value of 0 means no net growth occurred over the course of the experiment. […]
Compounds without any hit were thinned out: in the full panel of roughly 83,000, 20% have a hit. The source made the active and inactive calls. Rule for the calls: active = growth percent below 10; inactive = the rest.

compound: CCOC(=O)c1nc(Nc2ccc(NC(=O)Nc3ccc(F)cc3)cc2)c2ccccc2n1
growth: 102% (inactive)

compound: N#Cc1cccc(NC(=O)c2oc3ccccc3c2-c2cnn(-c3ccccc3)c2)c1
growth: 4.93% [50 µM] (active)

compound: CC1(c2ccccc2O)NN=C(/N=C/c2cccc([N+](=O)[O-])c2)N1C(Cc1c[nH]c2ccccc12)C(=O)O (centres undefined)
growth: 89.8% (inactive)

compound: CCOC(=O)c1cc2c(=O)oc3ccccc3c2oc1=O
growth: 122% (inactive)

* * *

# Test system: T-47D breast
# protocol description: NCI-60 one-dose screen, 48 h (100 = growth as untreated, 0 = no growth, -100 = all killed)
# stated conditions: 10 µM unless noted
This is part of a sample that, as a whole, favours compounds with a hit. Of some 83,000 tested, about 20% had one in any assay.
# label = criterion met if growth >= 70% else criterion not met

compound: CCN(CC)c1ccc(/C=C/C(=O)c2ccc(Nc3nc(Nc4ccccc4)nc(Nc4ccccc4)n3)cc2)cc1
class assignment: criterion not met
--
compound: CCCCCCC1(C)NCCO1 (stereo not drawn)
class assignment: criterion met
--
compound: O=C(N/N=C/c1ccc(F)cc1)c1ccc(C(F)(F)F)nc1Nc1cccc(C(F)(F)F)c1
class assignment: criterion not met
--
compound: CC(=O)OCc1nc(C#N)c(N(C)C)o1
class assignment: criterion met
--
compound: O=C(OCc1ccc2cccc(O)c2n1)N1CCN(C(=O)c2cc3cc(F)ccc3[nH]2)CC1
class assignment: criterion not met
--
compound: Cc1ccc(-c2nc(N3CCNCC3)c3oc(-c4ccccc4)nc3n2)cc1
class assignment: criterion not met
--
compound: COc1ccc2c3c([nH]c2c1)C(=O)c1nc(C)ccc1C3=O
class assignment: criterion not met
--
compound: O=c1oc2c(cnc3ccccc32)cc1-c1ccsc1
class assignment: criterion met
--
compound: COc1cc(-c2nc3cc(Cl)c(Cl)cc3[nH]2)ccc1OCC(=O)N=Nc1c(O)[nH]c2ccc([N+](=O)[O-])cc12
class assignment: criterion not met
--
compound: CC(C)N1CN2C(=S)NC3C2N(C1)C(=S)N3C (stereo not drawn)
class assignment: criterion met
--
compound: C=C(CNCCc1ccc(O)cc1)[C@@H]1CC[C@]2(CO)CC[C@]3(C)[C@H](CC[C@@H]4[C@@]5(C)CCC(NCCO)C(C)(C)[C@@H]5CC[C@]43C)[C@@H]12 (stereo partly drawn)
class assignment: criterion not met
--
compound: Fc1cc(F)cc(C(c2c[nH]c3ccccc23)c2c[nH]c3ccccc23)c1
class assignment: criterion met
--
compound: COc1ccc2cc(C(=O)c3coc4ccc(O)cc34)ccc2c1
class assignment: criterion met
--
compound: Cc1cc(N)c2cc(NC(=O)/C=C\c3ccccc3Cl)ccc2n1
class assignment: criterion not met
--
compound: Cc1nnc(-n2c(O)cc(=O)n(-c3ccccc3)c2=S)nc1/C=C/c1ccc(N(C)C)cc1
class assignment: criterion not met
--
compound: CN1C(=O)/C(=C/c2cn(-c3ccccc3)nc2-c2ccccc2)SC1=S
class assignment: criterion met
--
compound: CCCCN1C(=O)/C(=c2\sc3n(c2=O)C2C(NN=3)N(CC)C(=O)N2CC)c2ccccc21 (stereo not drawn)
class assignment: criterion not met
--
compound: CCOC(=O)C(=Cc1cccc(Br)c1)C(=O)OCC
class assignment: criterion not met
--
compound: O=C1/C(=C\c2cn(-c3ccccc3)nc2-c2ccc(-c3cccs3)cc2)CCc2ccccc21
class assignment: criterion not met
--
compound: COc1cc(CNS(=O)(=O)c2ccc(C)cc2)ccc1OCc1cn(-c2ccc(Br)cc2)nn1
class assignment: criterion met
--
compound: CC/C(=C(/c1ccc(Cl)cc1)c1ccc(OCCN2CCCC2)cc1)c1ccc(OC)cc1
class assignment: criterion not met
--
compound: O=C(CN1C(=O)CCC1=O)Nc1ncc(Cc2ccc(F)cc2)s1
class assignment: criterion met

Taken from PubChem BioAssay (NCI).
